The entries below are paired with their reported Classification.
Target: T1, GST-MUPP1 PDZ domain 11 (Homo sapiens (Human)), O75970
T1 chain: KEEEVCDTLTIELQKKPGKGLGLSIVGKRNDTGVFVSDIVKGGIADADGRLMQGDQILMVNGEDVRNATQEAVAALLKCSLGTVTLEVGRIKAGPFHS
Experiment: G' assay; also: key of the grades not given here
Write the answer as a number in A450 class, unit excluded.

ELLQFCRTPNPALKNGQYWV (modifications not checked) [CSPG4 (chondroitin sulfae proteoglycan 4, melanoma-associated)]	5
SFTSILTCHQRRTQRKETVA (modifications not checked) [GluR5-2 (rat)]	1
ILNSIQVMRAQMNQIQSVEV (modifications not checked) [ephrin B2]	2

Prompt: Look at this binder and give its reported Classification. RIAYSLLGLKDQVNTVGIPI (modifications not checked) [ephrin A2]
Response: 1

Prompt: Query KTMPAAMFRLLTGQETPLYI (modifications not checked) [MINT-2] next
Response: 5

Data credit: patent US20050282743A1
